- TESTED SYSTEM: Bromodomain-containing protein 4 (Homo sapiens, UniProt O60885)
- TEST: Inhibition of BRD4 (unknown origin) at 1 uM relative to control
Label Met when inhibition is at or above 50%; otherwise label Not met.

Prompt line: Could you verify whether the entry O=c1[nH]c(-c2ccc(Cc3n[nH]c(=O)c4ccccc34)c(F)c2)nc2ccccc12 shows inhibition of no less than 50%?
Response line: Not met

Prompt line: Let us now turn to O=c1[nH]c(-c2cccc(Cc3n[nH]c(=O)c4ccccc34)c2)nc2ccc(F)cc12
Response line: Met

Prompt line: Let us now turn to O=c1[nH]c(-c2cc(F)cc(Cc3n[nH]c(=O)c4ccccc34)c2)nc2ccccc12
Response line: Not met

Prompt line: Let us now turn to Cc1cc(-c2nc3ccc(F)cc3c(=O)[nH]2)ccc1Cc1n[nH]c(=O)c2ccccc12
Response line: Met

Prompt line: Let us now turn to COc1cc(OC)c2c(=O)[nH]c(-c3ccc(Cc4n[nH]c(=O)c5ccccc45)cc3)nc2c1
Response line: Met

Prompt line: Let us now turn to O=c1[nH]c(-c2cc(Cc3n[nH]c(=O)c4ccccc34)ccc2F)nc2ccccc12
Response line: Not met

Prompt line: Let us now turn to O=c1[nH]c(-c2cc(Cc3n[nH]c(=O)c4ccccc34)ccc2F)nc2ccc(F)cc12
Response line: Not met

Prompt line: Let us now turn to COc1cc(OC)c2c(=O)[nH]c(-c3cccc(Cc4n[nH]c(=O)c5ccc(Cl)cc45)c3)nc2c1
Response line: Met

Prompt line: Let us now turn to Cc1cc(-c2nc3cccc(C)c3c(=O)[nH]2)ccc1Cc1n[nH]c(=O)c2ccccc12
Response line: Not met

Prompt line: Let us now turn to COc1ccc2nc(-c3cccc(Cc4n[nH]c(=O)c5ccccc45)c3)[nH]c(=O)c2c1
Response line: Met

Prompt line: Let us now turn to O=c1[nH]nc(Cc2ccc(-c3nc4cccc(Cl)c4c(=O)[nH]3)cc2F)c2ccccc12
Response line: Met

Prompt line: Let us now turn to O=c1[nH]c(-c2ccc(Cc3n[nH]c(=O)c4ccccc34)cc2)nc2ccccc12
Response line: Not met

Prompt line: Let us now turn to COc1cc(-c2nc3cccc(C)c3c(=O)[nH]2)ccc1Cc1n[nH]c(=O)c2ccccc12
Response line: Not met

Prompt line: Let us now turn to COc1cc(-c2nc3cccc(Cl)c3c(=O)[nH]2)ccc1Cc1n[nH]c(=O)c2ccccc12
Response line: Not met

Prompt line: Let us now turn to Cc1cccc2nc(-c3ccc(Cc4n[nH]c(=O)c5ccccc45)cc3)[nH]c(=O)c12
Response line: Not met

Prompt line: Let us now turn to Cc1cc(-c2nc3ccccc3c(=O)[nH]2)ccc1Cc1n[nH]c(=O)c2ccccc12
Response line: Not met

Prompt line: Let us now turn to O=c1[nH]c(-c2ccc(Cc3n[nH]c(=O)c4ccccc34)c(F)c2)nc2ccc(F)cc12
Response line: Met

Prompt line: Let us now turn to Cc1cccc2nc(-c3cc(F)cc(Cc4n[nH]c(=O)c5ccccc45)c3)[nH]c(=O)c12
Response line: Not met

Prompt line: Let us now turn to COc1ccc2nc(-c3cc(Cc4n[nH]c(=O)c5ccccc45)ccc3F)[nH]c(=O)c2c1
Response line: Not met

Prompt line: Let us now turn to O=c1[nH]c(-c2cccc(Cc3n[nH]c(=O)c4ccccc34)c2)nc2ccccc12
Response line: Not met

Prompt line: Let us now turn to Cc1cc(-c2nc3ccc(Br)cc3c(=O)[nH]2)ccc1Cc1n[nH]c(=O)c2ccccc12
Response line: Met

Prompt line: Let us now turn to Cc1cccc2c(=O)[nH]c(-c3cc(Cc4n[nH]c(=O)c5ccccc45)ccc3F)nc12
Response line: Not met

Prompt line: Let us now turn to COc1cc(OC)c2c(=O)[nH]c(-c3cccc(Cc4n[nH]c(=O)c5ccccc45)c3)nc2c1
Response line: Met

Prompt line: Let us now turn to COc1ccc2nc(-c3ccc(Cc4n[nH]c(=O)c5ccccc45)c(OC)c3)[nH]c(=O)c2c1
Response line: Not met

Prompt line: Let us now turn to O=c1[nH]c(-c2cc(Cc3n[nH]c(=O)c4ccccc34)ccc2F)nc2ccc(Cl)cc12
Response line: Not met

Prompt line: Let us now turn to COc1cc(OC)c2c(=O)[nH]c(-c3cc(F)cc(Cc4n[nH]c(=O)c5ccccc45)c3)nc2c1
Response line: Met

Prompt line: Let us now turn to COc1cc(-c2nc3ccc(F)cc3c(=O)[nH]2)ccc1Cc1n[nH]c(=O)c2ccccc12
Response line: Not met

Prompt line: Let us now turn to O=c1[nH]nc(Cc2cc(F)cc(-c3nc4cccc(Cl)c4c(=O)[nH]3)c2)c2ccccc12
Response line: Met

* * *

- TESTED SYSTEM: Poly [ADP-ribose] polymerase 1 (Homo sapiens, UniProt P09874)
- Sequence (P09874 whole entry): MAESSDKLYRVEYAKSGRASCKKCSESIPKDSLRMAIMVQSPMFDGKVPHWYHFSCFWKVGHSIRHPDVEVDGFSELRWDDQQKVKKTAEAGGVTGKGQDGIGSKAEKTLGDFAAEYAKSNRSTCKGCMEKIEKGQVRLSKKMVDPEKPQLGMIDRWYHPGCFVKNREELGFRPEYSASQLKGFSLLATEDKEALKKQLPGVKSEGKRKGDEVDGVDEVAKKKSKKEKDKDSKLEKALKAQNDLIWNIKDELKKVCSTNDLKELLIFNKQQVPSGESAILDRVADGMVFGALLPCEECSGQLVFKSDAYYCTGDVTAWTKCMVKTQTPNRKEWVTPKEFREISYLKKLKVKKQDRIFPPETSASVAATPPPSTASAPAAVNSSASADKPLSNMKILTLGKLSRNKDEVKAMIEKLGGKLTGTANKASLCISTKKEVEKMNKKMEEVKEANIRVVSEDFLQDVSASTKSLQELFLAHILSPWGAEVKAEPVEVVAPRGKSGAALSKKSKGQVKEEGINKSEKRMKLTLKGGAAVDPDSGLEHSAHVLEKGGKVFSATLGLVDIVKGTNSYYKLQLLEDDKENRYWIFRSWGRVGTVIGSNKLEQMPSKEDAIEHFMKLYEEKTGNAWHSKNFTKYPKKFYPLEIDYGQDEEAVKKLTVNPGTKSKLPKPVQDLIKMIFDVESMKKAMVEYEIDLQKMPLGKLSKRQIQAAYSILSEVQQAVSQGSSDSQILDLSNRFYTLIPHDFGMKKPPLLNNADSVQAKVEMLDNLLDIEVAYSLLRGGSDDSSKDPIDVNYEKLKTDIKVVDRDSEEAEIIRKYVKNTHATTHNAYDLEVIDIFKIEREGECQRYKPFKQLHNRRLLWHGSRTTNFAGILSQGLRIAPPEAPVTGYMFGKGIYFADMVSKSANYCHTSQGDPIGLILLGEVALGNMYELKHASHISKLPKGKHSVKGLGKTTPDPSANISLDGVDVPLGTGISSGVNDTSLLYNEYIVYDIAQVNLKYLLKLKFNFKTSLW
- TEST: Inhibition of PARP1 (unknown origin) at 1 uM relative to control
Label criterion met when inhibition is at or above 50%; otherwise label criterion not met.

Prompt line: Could you verify whether the entry O=c1[nH]c(-c2ccc(Cc3n[nH]c(=O)c4ccccc34)cc2)nc2ccc(Br)cc12 shows inhibition of no less than 50%?
Response line: criterion met

Prompt line: Let us now turn to COc1ccc2nc(-c3ccc(Cc4n[nH]c(=O)c5ccccc45)c(F)c3)[nH]c(=O)c2c1
Response line: criterion not met

Prompt line: Let us now turn to O=c1[nH]nc(Cc2cc(F)cc(-c3nc4cccc(Cl)c4c(=O)[nH]3)c2)c2ccccc12
Response line: criterion met

Prompt line: Let us now turn to COc1cc(-c2nc3cccc(Cl)c3c(=O)[nH]2)ccc1Cc1n[nH]c(=O)c2ccccc12
Response line: criterion not met

Prompt line: Let us now turn to COc1cc(OC)c2c(=O)[nH]c(-c3ccc(Cc4n[nH]c(=O)c5ccccc45)c(F)c3)nc2c1
Response line: criterion not met

Prompt line: Let us now turn to Cc1cc(-c2nc3ccc(Br)cc3c(=O)[nH]2)ccc1Cc1n[nH]c(=O)c2ccccc12
Response line: criterion not met

Prompt line: Let us now turn to Cc1cccc2nc(-c3cc(F)cc(Cc4n[nH]c(=O)c5ccccc45)c3)[nH]c(=O)c12
Response line: criterion met

Prompt line: Let us now turn to Cc1cccc2nc(-c3cccc(Cc4n[nH]c(=O)c5ccccc45)c3)[nH]c(=O)c12
Response line: criterion met

* * *

- TESTED SYSTEM: Poly [ADP-ribose] polymerase 1 (Homo sapiens)
- TEST: Inhibition of PARP1 (unknown origin) at 1 uM relative to control
Provide the reported inhibition of each item.
Just the number please, in %, no unit attached.

Prompt line: Find the measured inhibition: item O=c1[nH]c(-c2cc(Cc3n[nH]c(=O)c4ccccc34)ccc2F)nc2ccc(Cl)cc12 , target or system Poly [ADP-ribose] polymerase 1 (Homo sapiens).
Response line: 68.6

Prompt line: Let us now turn to O=c1[nH]nc(Cc2ccc(-c3nc4cccc(Cl)c4c(=O)[nH]3)cc2)c2ccccc12
Response line: 58.5

Prompt line: Let us now turn to COc1cc(OC)c2nc(-c3cc(Cc4n[nH]c(=O)c5ccccc45)ccc3F)[nH]c(=O)c2c1
Response line: 72

Prompt line: Let us now turn to Cc1cccc2nc(-c3ccc(Cc4n[nH]c(=O)c5ccccc45)cc3)[nH]c(=O)c12
Response line: 52.6

Prompt line: Let us now turn to O=c1[nH]c(-c2ccc(Cc3n[nH]c(=O)c4ccccc34)cc2)nc2ccccc12
Response line: 63.8

Prompt line: Let us now turn to COc1ccc2nc(-c3cccc(Cc4n[nH]c(=O)c5ccccc45)c3)[nH]c(=O)c2c1
Response line: 78.4

Prompt line: Let us now turn to O=c1[nH]c(-c2cccc(Cc3n[nH]c(=O)c4ccccc34)c2)nc2ccccc12
Response line: 82.4

Prompt line: Let us now turn to Cc1cc(-c2nc3cccc(C)c3c(=O)[nH]2)ccc1Cc1n[nH]c(=O)c2ccccc12
Response line: 47.6

* * *

- TESTED SYSTEM: Bromodomain-containing protein 4 (Homo sapiens, UniProt O60885)
- TEST: Inhibition of BRD4 (unknown origin) at 1 uM relative to control
Provide the reported inhibition of each item.
Just the number please, in %, no unit attached.

Prompt line: Find the measured inhibition: item O=c1[nH]c(-c2cc(F)cc(Cc3n[nH]c(=O)c4ccccc34)c2)nc2ccc(F)cc12 , target or system Bromodomain-containing protein 4 (Homo sapiens, UniProt O60885).
Response line: 51.2

Prompt line: Let us now turn to COc1ccc2nc(-c3ccc(Cc4n[nH]c(=O)c5ccccc45)c(F)c3)[nH]c(=O)c2c1
Response line: 51.5

Prompt line: Let us now turn to COc1ccc2nc(-c3cc(F)cc(Cc4n[nH]c(=O)c5ccccc45)c3)[nH]c(=O)c2c1
Response line: 51.3

Prompt line: Let us now turn to O=c1[nH]c(-c2ccc(Cc3n[nH]c(=O)c4ccccc34)cc2)nc2ccc(Cl)cc12
Response line: 49.3
